Test: Visual solubility estimate of amorphous Compound 1 in solvents
Format: physicochemical
Details: acetonitrile, 23 °C, organic solvent or mixture, thermodynamic from solid, Acetonitrile; RT (~23° C.); visually estimated; read-out: Solubility at RT
Experimental readout: solubility

# compound CC(=O)c1nn(CC(=O)N2C[C@H](F)C[C@H]2C(=O)Nc2cccc(Br)n2)c2ccc(-c3cnc(C)nc3)cc12 ; its solubility = 98 to 392 mg/mL

###

Assay: Visual solubility estimate of amorphous Compound 1 in solvents
Format: physicochemical
Conditions: water, 23 °C, water, thermodynamic from solid, Water; RT (~23° C.); visually estimated; read-out: Solubility at RT
Experimental readout: solubility

So, CC(=O)c1nn(CC(=O)N2C[C@H](F)C[C@H]2C(=O)Nc2cccc(Br)n2)c2ccc(-c3cnc(C)nc3)cc12 [Amorphous Compound 1] ? Its solubility was < 6000 µg/mL
